# Assay procedure: Plasma Ang-(1-7) levels by radioimmunoassay at end of intravenous infusion
# Format: in vivo, rat
# Condition notes: male, Sprague-Dawley, rat, plasma, 24 ug/kg per hour; MI rats, iv infusion 24 μg/kg per hour, end of eight weeks of treatment; mean ± SEM; read-out: [Ang-(1-7)] plasma concentration of angiotensin-(1-7)
Endpoint name: level at time molar at 1344 h

Task item: Report level at time molar at 1344 h, nothing else, for this compound: CC[C@H](C)[C@H](NC(=O)[C@H](Cc1ccc(O)cc1)NC(=O)[C@@H](NC(=O)[C@H](CCCNC(=N)N)NC(=O)[C@@H](N)CC(=O)O)C(C)C)C(=O)N[C@@H](Cc1c[nH]cn1)C(=O)N1CCC[C@H]1C(=O)O
Reply: 0.918 nM
